growth values, listed per item
System: NCI/ADR-RES ovarian
Assay: NCI-60 one-dose screen, 48 h (100 = growth as untreated, 0 = no growth, -100 = all killed)
Conditions: 10 µM unless noted
Protocol: Growth inhibition of the NCI/ADR-RES human […] tumor cell line is measured as a screen for anti-cancer activity. Cells are grown in 96 well plates and exposed to the test compound for 48 hours. Compounds are tested at a single concentration, which is 10^-5 M for most compounds. The reported endpoint is percent growth (GI% or GIPRCNT), where numbers from 0 - 100% represent growth inhibition, and numbers from -100% - 0 represent cell death. For example, a value of 40 represents 60% growth inhibition. […]
About 83,000 compounds went through this panel and 20% of them were active in at least one assay; those are over-represented in the sample as a whole.
Report only the number, with the unit % understood.

Enquiry: Returns the measured growth for the input compound. Input: "C#Cc1cccc(Nc2ncnc3ccc(-c4cncc(NS(C)(=O)=O)c4)cc23)c1"
Return: 78.3

Enquiry: Returns the measured growth for the input compound. Input: "Clc1ccc(CNc2c3ccccc3nc3ccccc23)cc1"
Return: 36.7

Enquiry: Returns the measured growth for the input compound. Input: "O=C(c1cc2ccccc2o1)c1nn(-c2ccccc2)/c(=N/N=Cc2cn(-c3ccccc3)nc2-c2cc3ccccc3oc2=O)s1"
Return: 96.5

Enquiry: Returns the measured growth for the input compound. Input: "O=C(/C=C/c1cn(-c2ccccc2)nc1-c1ccc([N+](=O)[O-])cc1)c1ccc(Cl)cc1"
Return: 41.1

Enquiry: Returns the measured growth for the input compound. Input: "C/C(=N/O)c1ccc(F)cc1"
Return: 77.7

Enquiry: Returns the measured growth for the input compound. Input: "CCOC(=O)c1cc(C(=O)c2cc(OC)c(OC)c(OC)c2)n2ccc(-c3ccncc3)cc12"
Return: 99.2

Enquiry: Returns the measured growth for the input compound. Input: "COc1cc(C(=O)n2nc(N3CCN(C)CC3)c3cc(N)ccc32)cc(OC)c1OC"
Return: 67.9

Enquiry: Returns the measured growth for the input compound. Input: "CCN1CCN(c2cc(C(=O)Nc3nc(-c4cc(OC)c(OC)c(OC)c4)cs3)cc(C(F)(F)F)c2)CC1"
Return: 55.8

Enquiry: Returns the measured growth for the input compound. Input: Cc1ccc(S(=O)(=O)N2CCCC2CO)cc1 (stereo unspecified)
Return: 56.7

Enquiry: Returns the measured growth for the input compound. Input: CCC(C)N(c1ccc(Cl)cc1)c1nc(-c2ccc(Br)cc2)cs1 (stereo unspecified)
Return: 102

Enquiry: Returns the measured growth for the input compound. Input: COc1cc(NC(C)CCCNC(C)C)c2ncccc2c1OC (stereo unspecified)
Return: 85.4
